# Target Of Assay: human FP receptor (Homo sapiens (Human), UniProt P43088)
# Sequence (P43088 whole entry): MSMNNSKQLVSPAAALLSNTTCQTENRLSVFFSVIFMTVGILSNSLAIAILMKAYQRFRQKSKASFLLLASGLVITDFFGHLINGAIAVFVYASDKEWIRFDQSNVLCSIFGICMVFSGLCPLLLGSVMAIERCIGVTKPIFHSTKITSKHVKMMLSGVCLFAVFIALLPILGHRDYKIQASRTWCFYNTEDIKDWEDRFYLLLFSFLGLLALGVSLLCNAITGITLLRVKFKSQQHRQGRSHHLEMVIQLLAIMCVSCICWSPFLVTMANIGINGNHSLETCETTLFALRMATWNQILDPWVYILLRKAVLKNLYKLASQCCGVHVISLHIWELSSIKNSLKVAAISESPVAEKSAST
# Method Summary: In vitro test of inhibition of human FP receptor activity (PGF2α-induced calcium flux in FP-expressing CHEM1 cells)
# Experimental Setup: PGF2α-induced (3 nM) calcium flux, some as mean values from multiple independent determinations
pIC50: −log10 of the molar value.
Measure: pIC50

Example results:
Cc1c(-c2ccccc2)nc2ccc(Br)cc2c1C(=O)NC12CCC(C(N)=O)(CC1)CC2; 6.26
Cc1c(-c2c(F)cccc2F)nc2ccc(Br)cc2c1C(=O)NC12CCC(C(=O)O)(CC1)CC2; 6.31
Cc1c(-c2cccc(F)c2)nc2ccc(Br)cc2c1C(=O)NC12CCC(C(=O)O)(CC1)CC2; 6.74
C#Cc1ccc2nc(-c3ccccc3)c(C)c(C(=O)NC34CCC(C(=O)O)(CC3)CC4)c2c1; 6.83

I: Cc1c(-c2cccs2)nc2ccc(Br)cc2c1C(=O)NC12CCC(C(=O)O)(CC1)CC2
II: Cc1c(-c2ccc(Cl)s2)nc2ccc(Br)cc2c1C(=O)NC12CCC(C(=O)O)(CC1)CC2
Please indicate which entry, I or II , has the lower recorded pIC50 value. Label of pick, please.
II
(II: 6.62, I: 6.95)

1: O=C(NC12CCCC(C(=O)O)(CC1)CC2)c1c(C2CC2)c(-c2ccccc2)nc2ccc(I)cc12
2: Cc1c(-c2cc(Br)cs2)nc2ccc(Br)cc2c1C(=O)NC12CCC(C(=O)O)(CC1)CC2
Please indicate which entry, 1 or 2 , has the lower recorded pIC50 value. Label of pick, please.
2
(2: 7.24, 1: 7.48)

* * *

# Target Of Assay: human FP receptor (Homo sapiens (Human), UniProt P43088)
# Method Summary: In vitro test of inhibition of human FP receptor activity (PGF2α-induced calcium flux in FP-expressing CHEM1 cells)
# Format: cell-based
# Experimental Setup: PGF2α-induced (3 nM) calcium flux, some as mean values from multiple independent determinations
Measure: IC50 (nM)

Example results:
O=C(NC12C3C4C1C1C2C3C41C(=O)O)c1c(Cl)c(-c2ccccc2)nc2ccc(Br)cc12 (stereo not shown); 161
Cc1c(-c2ccc(Br)s2)nc2ccc(Br)cc2c1C(=O)NC12CCC(C(=O)O)(CC1)CC2; 383
O=C(NC12CCC(C(=O)O)(CC1)CC2)c1c(Cl)c(-c2ccccc2)nc2ccc(I)cc12; 22

a: Cc1c(-c2ccc(F)cc2)nc2ccc(Br)cc2c1C(=O)NC12CCC(C(=O)O)(CC1)CC2
b: Cc1c(-c2ccccc2)nc2ccc(Br)cc2c1C(=O)NC12CCC(C(=O)O)(CC1)C(=O)C2
I'd appreciate it if you could identify which of a and b has the greater IC50. Label of pick, please.
b
(b: 637 nM, a: 180 nM)

P: Cc1c(-c2ccccc2Cl)nc2ccc(Br)cc2c1C(=O)NC12CCC(C(=O)O)(CC1)CC2
Q: Cc1c(-c2ccccc2)nc2ccc(Br)cc2c1C(=O)NC12CCCC(C(=O)O)(CC1)CC2
R: Cc1c(-c2ccccc2)nc2ccc(I)cc2c1C(=O)NC12CCC(C(=O)O)(CC1)C2
S: Cc1c(-c2ccccc2)nc2ccc(I)cc2c1C(=O)NC12C3C4C1C1C2C3C41C(=O)O (stereo not shown)
Given 4 compounds, produce a descending ranking by IC50. Use the labels to give the ranking in the order requested.
R, Q, P, S
(R: 1280 nM, Q: 230 nM, P: 128 nM, S: 73 nM)

a: Cc1c(-c2ccccc2)nc2cc(Cl)c(Cl)cc2c1C(=O)NC12CCC(C(=O)O)(CC1)CC2
b: Cc1c(-c2cc(F)cc(F)c2)nc2ccc(Br)cc2c1C(=O)NC12CCC(C(=O)O)(CC1)CC2
c: Cc1c(-c2ccccc2)nc2ccc(C3CCC3)cc2c1C(=O)NC12CCC(C(=O)O)(CC1)CC2
d: Cc1c(-c2ccccc2)nc2c(C)cc(Br)cc2c1C(=O)NC12CCC(C(=O)O)(CC1)CC2
e: O=C(NC12CCC(C(=O)O)(CC1)CC2)c1c(C2CC2)c(-c2ccccc2)nc2ccc(I)cc12
Given 5 compounds, produce a descending ranking by IC50. Use the labels to give the ranking in the order requested.
c, b, d, a, e

Hey, just so you know, these numbers are from patent US10117864B2.
